- MEASURED_ON: human A2A adenosine receptor (Homo sapiens)
- Construct: expressed in transfected cells; host or cells: HEK293 or CHO cells
- Sequence (P29274 whole entry): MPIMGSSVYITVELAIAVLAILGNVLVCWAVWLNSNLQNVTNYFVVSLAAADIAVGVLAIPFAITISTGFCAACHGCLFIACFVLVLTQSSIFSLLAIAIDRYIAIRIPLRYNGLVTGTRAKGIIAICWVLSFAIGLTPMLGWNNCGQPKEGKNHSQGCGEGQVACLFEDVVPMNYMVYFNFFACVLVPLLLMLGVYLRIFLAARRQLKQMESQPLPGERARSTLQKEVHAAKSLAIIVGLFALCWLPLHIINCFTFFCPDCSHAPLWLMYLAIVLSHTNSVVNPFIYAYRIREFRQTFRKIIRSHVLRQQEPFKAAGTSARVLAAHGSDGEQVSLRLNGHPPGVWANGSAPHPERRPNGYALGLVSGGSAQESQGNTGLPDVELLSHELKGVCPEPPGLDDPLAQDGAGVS
- TEST_DETAILS: A2A binding affinity, Method (A): radioligand filtration binding with [3H]SCH58261
- EXPERIMENTAL_CONDITIONS: membranes of HEK293 or CHO cells expressing the human receptor
Quick reference: IC50 of the listed items.

{"MOLECULE": "COc1cccc2c1nc(N)n1nc(CNS(=O)(=O)C3CC3)nc21", "IC50": "0.6 nM"}
{"MOLECULE": "COc1cccc2c1nc(N)n1nc(CCNC34CC(C(C)(C)O)(C3)C4)nc21", "IC50": "12.3 nM"}
{"MOLECULE": "COc1cccc2c1nc(N)n1nc(CNC(=O)c3c(C)cc(C(C)(C)O)cc3C)nc21", "IC50": "10.2 nM"}
{"MOLECULE": "COc1cccc2c1nc(N)n1nc(CNC(=O)c3ccc(C(C)(O)C(F)(F)F)cc3)nc21 (single isomer, unassigned) [Example 2.7A]", "IC50": "0.3 nM"}
{"MOLECULE": "COc1cc(F)cc2c1nc(N)n1nc(CNC(c3ccc(C(C)(C)O)cc3)C(F)(F)F)nc21 (single isomer, unassigned) [Example 25.3A]", "IC50": "19.3 nM"}
{"MOLECULE": "COc1cccc2c1nc(N)n1nc(CNC(=O)c3ccc(C(C)(C)O)cn3)nc21", "IC50": "1.4 nM"}

Source of measurements: patent US20230322785A1
